TARGET_ENTITY: glucagon receptor (UniProt P47871 26-477, limits assumed)
Sequence (P47871 26-477 limits assumed): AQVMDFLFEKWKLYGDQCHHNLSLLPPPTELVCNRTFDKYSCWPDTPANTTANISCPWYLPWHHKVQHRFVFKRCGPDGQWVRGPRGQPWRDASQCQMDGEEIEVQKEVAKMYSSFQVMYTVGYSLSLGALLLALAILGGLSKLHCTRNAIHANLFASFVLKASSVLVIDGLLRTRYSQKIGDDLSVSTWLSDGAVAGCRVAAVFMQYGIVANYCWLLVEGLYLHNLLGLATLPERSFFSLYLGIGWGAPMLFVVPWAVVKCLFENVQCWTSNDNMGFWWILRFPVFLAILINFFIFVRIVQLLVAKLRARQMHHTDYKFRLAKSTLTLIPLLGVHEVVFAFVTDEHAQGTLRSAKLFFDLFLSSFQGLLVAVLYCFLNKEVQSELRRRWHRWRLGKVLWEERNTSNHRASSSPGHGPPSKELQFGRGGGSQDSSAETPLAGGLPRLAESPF
RUN_DESCRIPTION: cell-based or functional assay
Groups on a side chain read outwards from the residue. No end group written: not given here. *: point of attachment. Stearoyl = CCCCCCCCCCCCCCCCCC(=O)*; Palmitoyl = CCCCCCCCCCCCCCCC(=O)*
Assignment: determine reported EC50 for the given binders.
Numbers only, in pM.

>>> quantitative_readout("HSQGTFTSDK([Trp-Stearoyl])SKYLDERRAKDFVQWLMNT-NH2 [E16 K20-glucagon-NH2 with K10-W-C18]")
44
>>> quantitative_readout("HSQGTFTSDYSKYLDERRAKDFVQWLMNT-NH2 [E16 K20-glucagon-NH2]")
203
>>> quantitative_readout("HSQGTFTSDK(Palmitoyl)SKYLDERRAKDFVQWLMNT-NH2 [E16 K20-glucagon-NH2 with K10-C16]")
236

As a next step, examine the binder that follows.
Q: Give the measured EC50 of HSQGTFTSDK([Glu-Palmitoyl])SKYLDERRAKDFVQWLMNT-NH2 [Peptide D (Example 22)] .
Ans: 62
